system: DU-145; assay: Cytotoxicity against human DU145 cells; type: functional
Listed next: entries and their corresponding GI50.

{"Entry Smiles": "NCCCn1c2c(c3ccc([N+](=O)[O-])cc3c1=O)C(=O)c1cc(Cl)ccc1-2", "GI50": "< 10 nM"}
{"Entry Smiles": "NCCCn1c2c(c3ccc([N+](=O)[O-])cc3c1=O)C(=O)c1cc(Br)ccc1-2", "GI50": "< 10 nM"}
{"Entry Smiles": "O=C1c2cc(-c3ccccc3)ccc2-c2c1c1ccc([N+](=O)[O-])cc1c(=O)n2CCCBr", "GI50": "> 50100 nM"}

Moving on to another compound below.
Field request: GI50 | item: COc1ccc2c(c1)C(=O)c1c-2n(CCCN=[N+]=[N-])c(=O)c2cc([N+](=O)[O-])ccc12
< 1 nM
